# System: S. pneumoniae ATCC 49619
# testName: Primary MIC assay, S. pneumoniae ATCC 49619
# Format: cell-based, Streptococcus pneumoniae
# studyConditions: Streptococcus pneumoniae, ATCC49619; Table 1; read-out: MIC S. pneumoniae ATCC 49619
propertyName: MIC (µg/mL)

- chemicalSmiles: "CC(C)CCc1cn(-c2c(OCC(=O)N[C@H](CCCCN)C(=O)N[C@H](CCCNC(=N)N)Cn3cc(C4CCCCC4)nn3)ccc3ccccc23)nn1.Cl.Cl"
  propertyName: "MIC"
  relationSymbol: "="
  testValue: 16
- chemicalSmiles: "CC(C)CCOc1ccccc1-n1nncc1COCC(=O)N[C@H](CCCCN)C(=O)N[C@H](CCCNC(=N)N)Cn1cc(Cc2ccccc2)nn1"
  propertyName: "MIC"
  relationSymbol: ">"
  testValue: 32
- chemicalSmiles: "CC(C)CCc1cn(-c2ccccc2OCC(=O)N[C@H](CCCNC(=N)N)Cn2cc(C3CCCC3)nn2)nn1.Cl"
  propertyName: "MIC"
  relationSymbol: "="
  testValue: 16
- chemicalSmiles: "CC(C)CCOc1ccccc1-n1nncc1COCC(=O)N[C@H](CCCCN)C(=O)N[C@H](CCCNC(=N)N)Cn1cc(CC2CCCCC2)nn1"
  propertyName: "MIC"
  relationSymbol: ">"
  testValue: 32
- chemicalSmiles: "CC(C)CCc1cn(-c2c(OCC(=O)N[C@H](CCCNC(=N)N)Cn3cc(C4CCCCC4)nn3)ccc3ccccc23)nn1"
  propertyName: "MIC"
  relationSymbol: "="
  testValue: 16
- chemicalSmiles: "CC(C)CCc1cnnn1-c1ccccc1OCC(=O)N[C@H](CCCCN)C(=O)N[C@H](CCCNC(=N)N)Cn1cc(CC2CCCCC2)nn1"
  propertyName: "MIC"
  relationSymbol: "="
  testValue: 128
- chemicalSmiles: "CC(C)CCc1cn(-c2c(OCC(=O)N[C@H](CCCNC(=N)N)Cn3cc(Cc4ccccc4)nn3)ccc3ccccc23)nn1.Cl"
  propertyName: "MIC"
  relationSymbol: "="
  testValue: 4

Source of measurements: paper PMC8388771
